Tested on: dogs
Test: Antitussive activity (50%-antitussive effective dose AtD50; efficiency ratio relative to codeine phosphate)
Format: in vivo
Conditions: Canis lupus familiaris; intravenous injection; Litchfield-Wilcoxon method; read-out: AtD50 (50%-antitussive effective dose)
Where a name gives a salt, the structure may show the parent alone.
Output 1 (yes) for records whose ED50 is lower than 4 mg/kg, 0 (no) for records at or above 4 mg/kg.

Answered cases to consult:
# molecule, labelClass
records = [
    ("Cc1ccc(C(=NC2CCCCC2)Nc2cccc(C)c2C)cc1 [Compound 31, hydrochloride]", "1 (yes)"),
    ("COc1ccc(C(=Nc2ccccc2C)NC2CCCCC2)cc1.Cl", "1 (yes)"),
    ("COc1ccc(C(=Nc2ccccc2)NC2CCCCC2)cc1.Cl", "1 (yes)"),
    ("COc1ccccc1C(=Nc1ccccc1)NC1CCCCC1.Cl", "1 (yes)"),
    ("COc1ccc(C(=Nc2cccc(C)c2)NC2CCCCC2)cc1.Cl", "1 (yes)"),
]

Now examine the next entry.
INPUT: Threshold test, ED50 < 4 mg/kg: "Cc1ccccc1N=C(NC1CCCCC1)c1ccccc1C.Cl"
OUTPUT: 0 (no)

---

Please provide measured LD50 at 72 h for the entries that follow.
Test: in vivo
Format: in vivo
Conditions: mouse, in vivo, sc, male ddy mice, subcutaneous injection, Litchfield-Wilcoxon
Structures can show the parent of a compound that is named as a salt.
Numbers only, in mg/kg.

# compound, LD50 at 72 h [mg/kg]
rows = [
    ("COc1ccc(C(=Nc2ccccc2)NC2CCCCC2)cc1.Cl", 120),
    ("Cc1cccc(NC(=NC2CCCCC2)c2cccc(C)c2)c1", 445),
    ("COc1ccc2c(c1OC)C(=O)O[C@@H]2[C@H]1c2c(cc3c(c2OC)OCO3)CCN1C [Compound 16, noscapine hydrochloride, reference compound]", 240),
    ("CCc1ccc(N=C(NC2CCCCC2)c2ccccc2)cc1.Cl", 218),
    ("COc1ccc(C(=Nc2ccccc2C)NC2CCCCC2)cc1.Cl", 172),
    ("Cc1cccc(C)c1N=C(NC1CCCCC1)c1ccccc1.Cl", 248),
    ("Cc1ccc(N=C(NC2CCCCC2)c2cccc(C)c2)cc1.Cl", 900),
    ("COc1ccccc1N=C(NC1CCCCC1)c1ccccc1.Cl", 268),
    ("Cc1ccccc1NC(=NC1CCCCC1)c1ccccc1", 242),
    ("COc1cccc(N=C(NC2CCCCC2)c2ccccc2OC)c1.Cl", 207),
]

Give LD50 at 72 h for each of the items listed below.
1. Cc1cc(C)c(NC(=NC2CCCCC2)c2ccccc2)c(C)c1 [Compound 46, hydrochloride]
2. Cc1cccc(C(=NC2CCCCC2)Nc2ccccc2)c1

OUTPUT:
[120, 276]

Give LD50 at 72 h for each of the items listed below.
1. COc1ccccc1C(=Nc1cccc(C)c1)NC1CCCCC1.Cl
2. Cc1ccc(C(=NC2CCCCC2)Nc2ccccc2)cc1
3. Cc1cccc(NC(=NC2CCCCC2)c2ccccc2)c1C
4. Cc1cc(C)cc(N=C(NC2CCCCC2)c2ccccc2)c1.Cl
5. COc1ccccc1N=C(NC1CCCCC1)c1cccc(C)c1.Cl

OUTPUT:
144
186
117
660
100

---

Please provide measured LD50 at 72 h for the entries that follow.
Experiment: in vivo
Assay type: in vivo
Details: mouse, in vivo, sc, male ddy mice, subcutaneous injection, Litchfield-Wilcoxon
Answers are plain numbers, in mg/kg.

# compound, endpointUnit, LD50 at 72 h
measured = [
    ("COc1ccccc1C(=Nc1ccccc1C)NC1CCCCC1.Cl [Compound 36]", "mg/kg", 100),
]

Give LD50 at 72 h for each of the items listed below.
1. CCc1cccc(N=C(NC2CCCCC2)c2ccccc2)c1.Cl [Compound 44]
2. COc1cccc(N=C(NC2CCCCC2)c2ccc(C)cc2)c1.Cl [Compound 33]
3. COc1ccc(C(=Nc2cccc(OC)c2)NC2CCCCC2)cc1.Cl [Compound 41]

OUTPUT:
1: 900; 2: 600; 3: 248
